Assay: pH of dietary/therapeutic supplements, alkaline minerals and supplement compositions
Type: physicochemical
Settings: dietary or therapeutic supplement prior to combination with alkaline minerals (table)
endpoint.name: pH
Give bare numbers.

- O=C1O[C@H]([C@@H](O)CO)C(O)=C1O: 3.23
- O=C(O)c1cccnc1: 3.4
- [Zn]: 3.5

Turning now to a further molecule:
Enquiry: Quick one: pH of N[C@H]1C(O)O[C@H](CO)[C@@H](O)[C@@H]1O (stereo partly shown) ?
Return: 5.5
